# system: T1, human beta CGRP (SEQ ID NO: 81) (human, not fully specified)
# T1 construct: also called human βCGRP; hβCGRP
# T1 peptide: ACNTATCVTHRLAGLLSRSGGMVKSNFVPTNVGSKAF
# assay info: SPR, 37 C, mutein captured, CGRP analyte
measure name: koff (s⁻¹)
Write it as a number; the unit s⁻¹ goes unstated.

INSERT INTO measurements (binder, measure_name, value_observed) VALUES
  ('lipocalin mutein SEQ ID NO: 20 (designed binder, biotinylated by NHS chemistry for capture in SPR) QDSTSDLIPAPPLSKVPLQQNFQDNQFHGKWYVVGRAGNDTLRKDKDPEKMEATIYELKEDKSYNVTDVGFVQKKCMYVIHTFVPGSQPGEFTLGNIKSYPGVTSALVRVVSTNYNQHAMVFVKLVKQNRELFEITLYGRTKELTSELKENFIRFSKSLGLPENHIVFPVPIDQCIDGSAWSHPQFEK', 'koff', '7.89e-06');

Next, consider the following binder.
Please report the recorded koff for lipocalin mutein SEQ ID NO: 28 (designed binder, biotinylated by NHS chemistry for capture in SPR) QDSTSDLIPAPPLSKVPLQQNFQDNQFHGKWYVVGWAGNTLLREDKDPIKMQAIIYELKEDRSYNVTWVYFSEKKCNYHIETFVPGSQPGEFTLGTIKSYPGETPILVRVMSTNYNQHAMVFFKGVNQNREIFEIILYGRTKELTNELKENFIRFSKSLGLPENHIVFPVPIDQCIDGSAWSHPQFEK .
3.41e-05

Reference source for all entries: patent US20190338002A1
